In this section we review reported Proxy for plastic degradation values for a set of proteins.
- Substrate: BHET
- measurement-protocol: Proxy for plastic degradation [Released monomer concentration (HPLC/LC-MS) (MHET+TPA)]
- condition-info: pH 7.5
Kindly report the value followed by its unit.

Looking up unnamed (protein) NPYARGPNPTAASLEASAGPFTVRSFTVSRPSGYGAGTVYYPTNAGGTVGAIAIVPGYTARQSSIKWWGPRLASHGFVVITIDTNSTLDQPSSRSSQQMAALRQVASLNGTSSSPIYGKVDTARMGVMGWSMGGGGSLISAANNPSLKAAAPLAPWDSSTNFSSVTVPTLIFACENDSIAPVNSSALPIYDSMSRNAKQFLEINGGSHSCANSGNSNQALIGKKGVAWMKRFMDNDTRYSTFACENPNSTRVSDFRTANCS , I found its Proxy for plastic degradation recorded as 1.26 µM

Looking up unnamed (protein) NPYARGPNPTAASLEASAGPFTVRSFTVSRPSGYGAGTVYYPTNAGGTVGAIAIVPGYTARQSSIKWWGPRLASHGFVVITIDTNSTLDQPSSRSSQQMAALRQVASLNGTSSSPIYGKVDTARMGVMGWSMGGGGSLISAANNPSLKAAAPQAPWDSSTNFSSVTVPTLIFACENASIAPVNSSALPIYDSMSRNAKQFLEINGGSHSCANSGNSNQALIGKKGVAWMKRFMDNDTRYSTFACENPNSTRVSDFRTANCS , I found its Proxy for plastic degradation recorded as 0.03 µM

Looking up unnamed (protein) NPYARGPNPTAASLEASAGPFTVRSFTVSRPSGYGAGTVYYPTNAGGTVGAIAIVPGYTARQSSIKWWGPRLASHGFVVITIDTNSTLDQPSSRSSQQMAALRQVASLNGTSSSPIYGKVDTARMGVMGWSMGGGGSLISAANNPSLKAAAPQAPWDSSTNFSSVTVPTLIFACENDSIAPVNSSALPIYDSMSRNAKQFLEINGGSHSAANSGNSNQALIGKKGVAWMKRFMDNDTRYSTFACENPNSTRVSDFRTANCS , I found its Proxy for plastic degradation recorded as 0.22 µM

Looking up unnamed (protein) NPYARGPNPTAASLEASAGPFTVRSFTVSRPSGYGAGTVYYPTNAGGTVGAIAIVPGYTARQSSIKWWGPRLASHGFVVITIDTNSTLDQPSSASSQQMAALRQVASLNGTSSSPIYGKVDTARMGVMGWSMGGGGSLISAANNPSLKAAAPQAPWDSSTNFSSVTVPTLIFACENDSIAPVNSSALPIYDSMSRNAKQFLEINGGSHSCANSGNSNQALIGKKGVAWMKRFMDNDTRYSTFACENPNSTRVSDFRTANCS , I found its Proxy for plastic degradation recorded as 0.6 µM

Looking up unnamed (protein) NPYARGPNPTAASLEASAGPFTVRSFTVSRPSGYGAGTVYYPTNAGGTVGAIAIVPGYTARQSSIKWWGPRLASHGFVVITIDTNSTLDQPSSRSSQQMAALRQVASLNGTSSSPIYGKVDTARMGVMGASMGGGGSLISAANNPSLKAAAPQAPWDSSTNFSSVTVPTLIFACENDSIAPVNSSALPIYDSMSRNAKQFLEINGGSHSCANSGNSNQALIGKKGVAWMKRFMDNDTRYSTFACENPNSTRVSDFRTANCS , I found its Proxy for plastic degradation recorded as 0.23 µM

Looking up unnamed (protein) NPYARGPNPTAASLEASAGPFTVRSFTVSRPSGYGAGTVYYPTNAGGTVGAIAIVPGYTARQSSIKWWGPRLASHGFVVITIDTNSTLDQPSSRSSQQMAALRQVASLNGTSSSPIYGKVDTARMGVMGWSMGGGGSLISAANNPSLKAAAPQAPWDSSTNFSSVTVPTLIFAAENDSIAPVNSSALPIYDSMSRNAKQFLEINGGSHSCANSGNSNQALIGKKGVAWMKRFMDNDTRYSTFACENPNSTRVSDFRTANCS , I found its Proxy for plastic degradation recorded as 0.26 µM

Looking up unnamed (protein) NPYARGPNPTAASLEASAGPFTVRSFTVSRPSGYGAGTVYYPTNAGGTVGAIAIVPGYTARQSSIKWWGPRLASHGFVVITIDTNSTLDAPSSRSSQQMAALRQVASLNGTSSSPIYGKVDTARMGVMGWSMGGGGSLISAANNPSLKAAAPQAPWDSSTNFSSVTVPTLIFACENDSIAPVNSSALPIYDSMSRNAKQFLEINGGSHSCANSGNSNQALIGKKGVAWMKRFMDNDTRYSTFACENPNSTRVSDFRTANCS , I found its Proxy for plastic degradation recorded as 0.94 µM

Looking up unnamed (protein) NPYARGPNPTAASLEASAGPFTVRSFTVSRPSGYGAGTVYYPTNAGGTVGAIAIVPGYTARQSSIKWWGPRLASHGFVVITIDTNSTLDQPSSRSSQQMAALRQVASLNGTSSSPIYGKVDTARMGVMGWSAGGGGSLISAANNPSLKAAAPQAPWDSSTNFSSVTVPTLIFACENDSIAPVNSSALPIYDSMSRNAKQFLEINGGSHSCANSGNSNQALIGKKGVAWMKRFMDNDTRYSTFACENPNSTRVSDFRTANCS , I found its Proxy for plastic degradation recorded as 0.57 µM

Looking up unnamed (protein) NPYARGPNPTAASLEASAGPFTVRSFTVSRPSGYGAGTVYYPTNAGGTVGAIAIVPGYTARQSSIKWWGPRLASHGFVVITIDTNSTLDQPSSRSSQQMAALRQVASLNGTSSSPIYGKVDTARMGVMGWSMGGGGSLISAANNPSLKAAAPQAPWDSSTNFSSVTVPTLIFACENDSAAPVNSSALPIYDSMSRNAKQFLEINGGSHSCANSGNSNQALIGKKGVAWMKRFMDNDTRYSTFACENPNSTRVSDFRTANCS , I found its Proxy for plastic degradation recorded as 0.54 µM

Cited source: the PETadex activity labels (doi:10.1002/cbic.201800097)
